# IC50 values compiled below
Target: cytochrome bc1 complex (Candida albicans, UniProt A0A1D8PJX3+P0C8L0)
Construct: native multi-subunit complex III; preparation and assay not given; with Cytochrome c1, heme protein, mitochondrial
Sequence (P0C8L0 whole entry): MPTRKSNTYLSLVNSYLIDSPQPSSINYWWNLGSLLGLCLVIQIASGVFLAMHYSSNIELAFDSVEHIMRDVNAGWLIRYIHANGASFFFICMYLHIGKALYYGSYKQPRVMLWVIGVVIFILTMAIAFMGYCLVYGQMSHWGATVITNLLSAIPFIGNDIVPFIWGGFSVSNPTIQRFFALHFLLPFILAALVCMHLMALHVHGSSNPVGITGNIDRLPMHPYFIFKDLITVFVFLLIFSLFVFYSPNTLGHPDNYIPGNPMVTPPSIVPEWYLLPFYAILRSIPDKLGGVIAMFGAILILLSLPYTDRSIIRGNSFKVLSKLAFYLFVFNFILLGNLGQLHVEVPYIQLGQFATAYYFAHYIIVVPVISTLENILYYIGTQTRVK
Sequence (A0A1D8PJX3 30-213): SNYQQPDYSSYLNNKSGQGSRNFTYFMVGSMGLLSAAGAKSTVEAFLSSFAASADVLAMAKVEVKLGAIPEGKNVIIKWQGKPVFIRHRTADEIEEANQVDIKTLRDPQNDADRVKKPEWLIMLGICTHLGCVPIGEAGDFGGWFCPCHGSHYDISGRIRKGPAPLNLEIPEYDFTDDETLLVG
Sequence (A0A1D8PHA3 43-288 partner): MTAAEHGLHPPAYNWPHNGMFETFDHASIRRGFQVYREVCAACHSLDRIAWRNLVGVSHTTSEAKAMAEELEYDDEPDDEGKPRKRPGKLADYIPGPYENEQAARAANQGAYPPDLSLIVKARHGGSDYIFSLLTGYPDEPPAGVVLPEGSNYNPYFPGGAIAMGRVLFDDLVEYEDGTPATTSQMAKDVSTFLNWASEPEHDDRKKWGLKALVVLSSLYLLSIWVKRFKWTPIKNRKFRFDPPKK
Assay: cytochrome bc1 activity, dose response (assay not described)
parameter: IC50 (µM)

smiles.code	study.target	parameter	reported.measurement
CC(C)=CCC/C(C)=C/Cc1c(O)c(Br)c(C)c(C=O)c1O	cytochrome bc1 complex (Candida albicans, UniProt A0A1D8PJX3+P0C8L0)	IC50	1.2
Cc1c(Br)c(O)c(CCCCCCCCCCCC[P+](c2ccccc2)(c2ccccc2)c2ccccc2)c(O)c1C=O	cytochrome bc1 complex (Candida albicans, UniProt A0A1D8PJX3+P0C8L0)	IC50	9.1
Cc1c(Br)c(O)c(CCCCCCCC[P+](c2ccccc2)(c2ccccc2)c2ccccc2)c(O)c1C=O	cytochrome bc1 complex (Candida albicans, UniProt A0A1D8PJX3+P0C8L0)	IC50	5.8
CC(C)=CCC/C(C)=C/Cc1c(O)c(Cl)c(C)c(C=O)c1O	cytochrome bc1 complex (Candida albicans, UniProt A0A1D8PJX3+P0C8L0)	IC50	1.1
